# EXPERIMENT_DESCRIPTION: protein stability index of a GFP-peptide fusion (yeast GPS) (PSI 1-4); higher = more stable; sorted into four equal gates, so the index is relative within each strain
# MEASUREMENT_CONTEXT: san1∆
OBSERVED_PROPERTY: protein stability index

Please report the measured protein stability index for SEGEQKSAEGNNIDQSL [YAR002W/NUP60]
2.94

Please report the measured protein stability index for PDVKSLVQLSTMETKTL [SIR4]
2.81

Please report the measured protein stability index for VSMVKRAIDSLIQKGYL [CDC53]
2.03

Please report the measured protein stability index for VFLLTTRAGGLGINLVT [ISW2]
1.56

Please report the measured protein stability index for FDRLNGNDTISKFYNMK [SSN2]
3.19

Please report the measured protein stability index for SNEAAKPSFSFPGKPVD [YOR098C/NUP1]
3.01

Please report the measured protein stability index for QANIQLYSIREDYELSP [PRE1]
3.01

Please report the measured protein stability index for DENKDDELVKLLLDNGF [SRP68]
3.36

Please report the measured protein stability index for ETELFEPGVLNTGDGSI [ECM29]
2.92

Please report the measured protein stability index for YINSDSVNPAMLPGSSN [RPO31]
2.73

Please report the measured protein stability index for AISKKDLEEVKRFQVLY [SEC65]
2.8

Please report the measured protein stability index for VTSSFFYRGNYTDFENT [FAS1]
2.43

Please report the measured protein stability index for TFSVYHESTSRTDQYTI [YMR129W/POM152]
2.58

Please report the measured protein stability index for PNIHQNLLPKKSAKATK [HTA1]
2.69

Please report the measured protein stability index for WGAETDELSMIMEHFSQ [RPS12]
3.44

Please report the measured protein stability index for SIEFAKREKRVFLKHSL [RPN6]
2.87

----------
# EXPERIMENT_DESCRIPTION: protein stability index of a GFP-peptide fusion (yeast GPS) (PSI 1-4); higher = more stable; sorted into four equal gates, so the index is relative within each strain
# MEASUREMENT_CONTEXT: doa10∆
OBSERVED_PROPERTY: protein stability index
Write the number on its own, no unit after it.

Here's what some known entries look like.
Please report the measured protein stability index for GRGTLFVRGDSKIFRFQ [RPL24A]
1.58

Please report the measured protein stability index for DPKFRRNHKHALHGTAK [RPL29]
2.34

Please report the measured protein stability index for EQLSKQRDLYKRKEELV [SMC2]
2.34

Please report the measured protein stability index for ENSIGYNNRKCWPKDSR [PRP8]
3.08

Please report the measured protein stability index for ETPSRLLLSPDQWYCID [ITC1]
2.8

Please report the measured protein stability index for IGQFLEPIDQNTGIVSS [RPT3]
2.48

Please report the measured protein stability index for EFFSTNWLSIFNDFSNI [REC8]
2.83

Let's switch to this sequence now.
Please report the measured protein stability index for DLLVIDSHKRIPDMSKN [SNU114]
2.99

----------
# EXPERIMENT_DESCRIPTION: protein stability index of a GFP-peptide fusion (yeast GPS) (PSI 1-4); higher = more stable; sorted into four equal gates, so the index is relative within each strain
# MEASUREMENT_CONTEXT: ubr1∆
Kindly return 1.0 if reported protein stability index is no lower than 3; return 0.0 if it is lower.

Solved entries:
Dear colleague, could you confirm whether ESTETGYVIKVFNNGIV [DIS3] has protein stability index at or above 3?
0.0

Dear colleague, could you confirm whether TLHLVLRLRGGIIEPSL [RPL40A] has protein stability index at or above 3?
0.0

Dear colleague, could you confirm whether KELELERKEREDFQKRQ [SWI1] has protein stability index at or above 3?
1.0

Dear colleague, could you confirm whether TKDKAKKIREIYRYDEM [BRR2] has protein stability index at or above 3?
0.0

Dear colleague, could you confirm whether LEPGCSVLLHHKTMSIV [RPT2] has protein stability index at or above 3?
0.0

Dear colleague, could you confirm whether FQIPTNLDAAAAGTSQA [RPC10] has protein stability index at or above 3?
0.0

Dear colleague, could you confirm whether GNYVIIIGHNPDENKTR [RPL2A] has protein stability index at or above 3?
0.0

Dear colleague, could you confirm whether VECAQHCIDYLRKNKLG [SMC4] has protein stability index at or above 3?
0.0

Continuing:
Dear colleague, could you confirm whether QKVNAVDSTFQKVSENF [SMC3] has protein stability index at or above 3?
1.0

Dear colleague, could you confirm whether QEKNFQTGIFVYQNNIT [RPB5] has protein stability index at or above 3?
0.0

----------
protein stability index values, listed per item
# EXPERIMENT_DESCRIPTION: protein stability index of a GFP-peptide fusion (yeast GPS) (PSI 1-4); higher = more stable; sorted into four equal gates, so the index is relative within each strain
# MEASUREMENT_CONTEXT: san1∆
Write the number on its own, no unit after it.

Please report the measured protein stability index for VSKSEPKFFLGEENRVR [QCR2]
3.13

Please report the measured protein stability index for VEESSEKKQKTESQDVE [DPB4]
3.23

Please report the measured protein stability index for ADDAISMHLLKDWTDTF [SRB8]
2.94

Continuing:
Please report the measured protein stability index for ALKKSRSKGKQNRPYNH [RPC17]
2.5

Please report the measured protein stability index for PADSTYGAYNTQIANAG [PRE4]
2.08

Please report the measured protein stability index for GEKIDSNKPIFLFAPEL [SWI1]
2.59

Please report the measured protein stability index for GSLWVEFCDEPSVGVKT [RPB5]
3

Please report the measured protein stability index for GIDPTRIYTNSFIDIME [RPO21]
2.77

----------
# EXPERIMENT_DESCRIPTION: protein stability index of a GFP-peptide fusion (yeast GPS) (PSI 1-4); higher = more stable; sorted into four equal gates, so the index is relative within each strain
# MEASUREMENT_CONTEXT: doa10∆
OBSERVED_PROPERTY: protein stability index

Here's what some known entries look like.
Please report the measured protein stability index for KMVAKGLNDLVEQYKFR [BRR2]
3.35

Please report the measured protein stability index for IYSPLHSFIKMLQMKGK [SIR2]
2.1

Please report the measured protein stability index for LLNILITYGIIKVPTYI [SRB8]
1.57

Please report the measured protein stability index for DNDIMNLGSRTKNNTQA [SSN3]
2.91

Please report the measured protein stability index for KTQLGSTMTEPVKQSFI [GAL11]
2.81

Continuing:
Please report the measured protein stability index for KMKIQETISKLNEYKRE [SMC2]
1.3

Please report the measured protein stability index for ESMSYLPDPILKNFLSY [MCD1]
2.34

Please report the measured protein stability index for FDKIIKIREDHINKIPS [SRB8]
2.67

Please report the measured protein stability index for KRPNNKTLEKLESTIAE [IRR1]
3.62

Please report the measured protein stability index for VQASVTSSTHERKSKTY [RET1]
2.6

Please report the measured protein stability index for ERDFYHSLREYINGKAT [RPO31]
2.58

----------
# EXPERIMENT_DESCRIPTION: protein stability index of a GFP-peptide fusion (yeast GPS) (PSI 1-4); higher = more stable; sorted into four equal gates, so the index is relative within each strain
# MEASUREMENT_CONTEXT: pdr5∆
protein stability index values, listed per item
Write the number on its own, no unit after it.

Here's what some known entries look like.
Please report the measured protein stability index for FHVGFIAKIKKVCECVC [RPO21]
1.27

Please report the measured protein stability index for KEQENITIQDLLFPKST [DPB4]
2.64

Please report the measured protein stability index for SKQDVEALIEFIYDTEK [FAS2]
3.17

Please report the measured protein stability index for EDLFDDYPSTSLDIRHD [NUT1]
2.9

Please report the measured protein stability index for GAKPEEKKDDNSSKPAF [YJL041W/NSP1]
3.38

Please report the measured protein stability index for EWFEQNNSEQDQEIVIQ [ISW2]
3.19

Continuing:
Please report the measured protein stability index for LAQLTSKLIPEVINKEI [RPS1A]
3.28

Please report the measured protein stability index for DPKTSLRIVKPTVSLTI [RPC82]
2.3

Please report the measured protein stability index for EQLSKQRDLYKRKEELV [SMC2]
3.1

Please report the measured protein stability index for MQSTSPAVKQWDLLPEP [SWI1]
1.5

Please report the measured protein stability index for SNGSGIVAAGGGSGAAT [CSL4]
3.53

Please report the measured protein stability index for KTFKNPKYESLKLEYYN [RPN5]
1.49

Please report the measured protein stability index for IQFLTIGAGVPSLEVAS [FAS1]
1.24

Please report the measured protein stability index for KTKFQYKFLDQNSDAST [YIL149C/MLP2]
3.01

Please report the measured protein stability index for LKEDDSSLYEASLNALK [RPN1]
3.18

Please report the measured protein stability index for NSILSVRDPWSIDFRTY [SRB2]
2.68

Please report the measured protein stability index for QNIKAPSVKRQKMAELE [PRP8]
3.25

Please report the measured protein stability index for SLDRVAWRTLVGVSHTN [CYT1]
1.31

Data provenance is the supplement of paper PMC9732359.
